Hey, just so you know, these numbers are from ChEMBL document CHEMBL1137103.

# pIC50 per record follows
- target or test system: UniProt:Q99705
- Sequence (Q99705 whole entry): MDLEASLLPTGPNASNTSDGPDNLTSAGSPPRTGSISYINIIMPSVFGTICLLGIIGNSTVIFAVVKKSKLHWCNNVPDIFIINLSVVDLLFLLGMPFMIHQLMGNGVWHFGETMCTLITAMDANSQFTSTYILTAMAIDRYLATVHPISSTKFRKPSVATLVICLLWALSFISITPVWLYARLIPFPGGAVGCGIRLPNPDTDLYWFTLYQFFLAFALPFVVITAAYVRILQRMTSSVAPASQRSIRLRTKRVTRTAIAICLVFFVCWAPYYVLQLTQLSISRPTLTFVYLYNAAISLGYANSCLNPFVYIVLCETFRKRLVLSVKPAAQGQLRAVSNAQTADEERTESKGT
- measurement protocol: Binding affinity against human Melanin-concentrating hormone receptor 1 stably transfected CHO cells was determined using scintillation proximity assay (SPA)
- Assay type: cell-based
Scale explanation: pIC50 corresponds to minus log10 of a concentration expressed in moles per litre.

[[record]]
cpd_smiles = "CCN(CC)CCNC(=O)c1ccc(NC(=O)Nc2ccc(C(=O)C(F)(F)F)cc2)cc1OC"
target_or_test_system = "UniProt:Q99705"
numeric_readout = 5.23

[[record]]
cpd_smiles = "CCN(CC)CCNC(=O)c1ccc(N(C)C(=O)Nc2ccc(Oc3ccccc3)cc2)cc1OC"
target_or_test_system = "UniProt:Q99705"
numeric_readout = 6.27

[[record]]
cpd_smiles = "CCN(CC)CCNC(=O)c1ccc(NC(=O)Nc2ccc(Br)cc2)cc1OC"
target_or_test_system = "UniProt:Q99705"
numeric_readout = 6.60


Turning now to a further molecule:
Specify measured pIC50 for CCN(CC)CCN(C)C(=O)c1ccc(NC(=O)Nc2ccc(Oc3ccccc3)cc2)cc1 .
4.96
